measurement_target: human serum albumin (HSA) (Homo sapiens, UniProt P02768)
Sequence (P02768 25-609): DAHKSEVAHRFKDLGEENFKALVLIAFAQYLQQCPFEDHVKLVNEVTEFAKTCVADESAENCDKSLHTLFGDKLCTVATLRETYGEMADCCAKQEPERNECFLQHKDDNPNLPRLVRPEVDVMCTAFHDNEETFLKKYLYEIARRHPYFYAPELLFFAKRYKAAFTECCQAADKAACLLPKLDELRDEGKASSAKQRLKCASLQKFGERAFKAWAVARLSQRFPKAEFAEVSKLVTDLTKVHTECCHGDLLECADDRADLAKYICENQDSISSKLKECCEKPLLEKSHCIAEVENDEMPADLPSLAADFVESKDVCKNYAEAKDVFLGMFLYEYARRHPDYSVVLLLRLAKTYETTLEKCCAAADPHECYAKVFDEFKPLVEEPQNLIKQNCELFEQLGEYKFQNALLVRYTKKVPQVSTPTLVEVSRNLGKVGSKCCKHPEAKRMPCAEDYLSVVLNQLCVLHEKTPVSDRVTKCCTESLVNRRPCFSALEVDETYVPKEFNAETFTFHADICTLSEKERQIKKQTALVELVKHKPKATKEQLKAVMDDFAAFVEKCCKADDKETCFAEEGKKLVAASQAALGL
condition_notes: presence of HSA, 25 °C, 20 MHz
measured_metric: r1 HSA (relaxivity) (mM⁻¹ s⁻¹)

Use the examples below as a reference point.
                                   compound  measured_number
0  O=C(O)CN(CC(=O)N1CCC(Cc2ccccc2)CC1)c1ccccc1N(CC(=O)O)CC(=O)N1CCC(Cc2ccccc2)CC1 [drawing 28]            28.20
1  O=C(O)CN(CC(=O)N1CCCCC1)c1ccccc1N(CC(=O)O)CC(=O)N1CCCCC1 [drawing 27]             9.09
2  CCCCNC(=O)CN(CC(=O)O)C1CCCCC1N(CC(=O)O)CC(=O)NCCCC (stereo not drawn) [drawing 26]             6.55
3  O=C(O)CN(CC(=O)N1CCC(Cc2ccccc2)CC1)C1CCCCC1N(CC(=O)O)CC(=O)N1CCC(Cc2ccccc2)CC1 (stereo not drawn)            19.44
4  O=C(O)CN(CC(=O)NC(CO)CO)C1CCCCC1N(CC(=O)O)CC(=O)NC(CO)CO (stereo not drawn) [drawing 24]             6.01
5  O=C(O)CN(CC(=O)N1CCC(C(=O)O)CC1)C1CCCCC1N(CC(=O)O)CC(=O)N1CCC(C(=O)O)CC1 (stereo not drawn)             5.98

A = O=C(O)CN(CC(=O)N1CCOCC1)C1CCCCC1N(CC(=O)O)CC(=O)N1CCOCC1 (stereo not drawn)
B = CN(C)C(=O)CN(CC(=O)O)C1CCCCC1N(CC(=O)O)CC(=O)N(C)C (stereo not drawn) [drawing 25]
Rank A against B by their r1 HSA (relaxivity) values and give the higher one. Bench note: the answer is the label of the chosen record.
B

This collection of values is drawn from patent US10265422B2.
